organism: Rattus norvegicus; assay: Open TG-GATES - Regimen: Daily Repeat; assay type: toxicity, organism-based, Sprague-Dawley; design: regimen Daily Repeat, gender Male, age 6 weeks; settings: in vivo, po, 1000 mg/kg, […], tissue Kidney, route gavage, dose level High, time 7 day
observed property: KIDNEY_L (g)
Value expressed in g; do not type the unit.

Exercise: Respond only with KIDNEY_L recorded for CC(C)OC(=O)C(C)(C)Oc1ccc(C(=O)c2ccc(Cl)cc2)cc1 [FENOFIBRATE]
Solution: 1.1

Exercise: Could you please provide reported KIDNEY_L for CCOC(=O)CCC(=O)O[C@H]1[C@H](O[C@@H]2[C@@H](C)[C@H](O[C@H]3C[C@@](C)(OC)[C@@H](O)[C@H](C)O3)[C@@H](C)C(=O)O[C@H](CC)[C@@](C)(O)[C@H](O)[C@@H](C)C(=O)[C@H](C)C[C@@]2(C)O)O[C@H](C)C[C@@H]1N(C)C [ERYTHROMYCIN ETHYLSUCCINATE] ? Thanks!
Solution: 1.1

Exercise: Answer with the recorded KIDNEY_L of COC1=CC(=O)C[C@@H](C)[C@]12Oc1c(Cl)c(OC)cc(OC)c1C2=O [GRISEOFULVIN] only.
Solution: 1.1

Exercise: Look up KIDNEY_L of NC(N)=Nc1nc(CSCCC(N)=NS(N)(=O)=O)cs1 [FAMOTIDINE] and report it.
Solution: 1.2

Exercise: Please supply the value of reported KIDNEY_L for the item COc1ccc2[nH]c([S+]([O-])Cc3ncc(C)c(OC)c3C)nc2c1 (stereo unspecified) [OMEPRAZOLE]
Solution: 1.1

Exercise: Consider the molecule CCOc1ccc(NC(=O)CC(C)O)cc1 (stereo unspecified) [BUCETIN] and give its recorded KIDNEY_L.
Solution: 1.1

----------
species on record: Rattus norvegicus; assay: Open TG-GATES - Regimen: Daily Repeat; format: toxicity, organism-based, Sprague-Dawley; set-up: regimen Daily Repeat, gender Male, age 6 weeks; conditions: in vivo, po, 0 mg/kg, […], tissue Plasma, route gavage, dose level Control, time 14 day
Consider the following compounds; for each one, report its DBIL.
Give the quantity in mg/dL, number only.

Exercise: Give the value of DBIL reported for the following: CC(C)OC(=O)C(C)(C)Oc1ccc(C(=O)c2ccc(Cl)cc2)cc1 [FENOFIBRATE]
Solution: 0.014

Exercise: Fill in reported DBIL for this entry: O=C(CCCN1CCC(O)(c2ccc(Cl)cc2)CC1)c1ccc(F)cc1 [HALOPERIDOL]
Solution: 0.01

Exercise: Fill in DBIL for record CCOc1ccc(NC(=O)CC(C)O)cc1 (stereo not drawn) [BUCETIN]
Solution: 0.02

Exercise: Return the recorded DBIL value; entry: NNC(=O)c1ccncc1 [ISONIAZID]
Solution: 0.002

Exercise: Quick one: give measured DBIL for CC1=C(/C=C/C(C)=C/C=C/C(C)=C/CO)C(C)(C)CCC1 [RETINOL]
Solution: 0

Exercise: Item CCOC(=O)CCC(=O)O[C@H]1[C@H](O[C@@H]2[C@@H](C)[C@H](O[C@H]3C[C@@](C)(OC)[C@@H](O)[C@H](C)O3)[C@@H](C)C(=O)O[C@H](CC)[C@@](C)(O)[C@H](O)[C@@H](C)C(=O)[C@H](C)C[C@@]2(C)O)O[C@H](C)C[C@@H]1N(C)C [ERYTHROMYCIN ETHYLSUCCINATE] : provide DBIL
Solution: 0

Exercise: Specify reported DBIL for the compound shown: CCCNC(=O)NS(=O)(=O)c1ccc(Cl)cc1 [CHLORPROPAMIDE]
Solution: 0.012

Exercise: Using the record for COC1=CC(=O)C[C@@H](C)[C@]12Oc1c(Cl)c(OC)cc(OC)c1C2=O [GRISEOFULVIN] , state its measured DBIL.
Solution: 0.1

Reference for the values: ChEMBL document CHEMBL3885861
